Target: T1, CRH (CT-Biotin) (human and mouse, biotin on the added C-terminal K (-K-Biotin))
T1 construct: also called Peptide 4 (CRH-Biotin); C-terminally biotinylated corticotropin-releasing hormone
T1 peptide: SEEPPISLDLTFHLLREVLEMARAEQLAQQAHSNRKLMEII
Experiment: ELISA, C-terminally biotinylated CRH on streptavidin-coated plate
Experimental: Streptavidin (Thermo, Cat: 21125) was diluted in PBS to a concentration of 2 μg/ml. 100 μl of diluted streptavidin was added per well to ELISA microplates, and the plates were incubated overnight at 4° C. […] 100 μL of ELISA stopping solution (Solarbio, Cat #: C1058) was added to terminate the reaction, and the optical density at 450 nm (OD450 nm) was determined by an ELISA plate reader (Molecular Devices, Spectra max 384 plus).
For each record, write down the corresponding EC50.

>  <BINDER>
PR302312 (antibody, human IgG1, kappa, V domains shown, Mouse variable domains, expressed recombinantly with human IgG1 wildtype Fc; also called Series 10 mAb) VH: EVQLQQSGPELVKPGASVKMSCKASGYTFTDYFMKWMKQSHGKSLEWIGVINPNNGDTFYNQNFKGKATLTVDKSSSTAYMQLNSLTSEDSAVYYCTRGTARALFAYWGQGTLVTVSA VL: DVLMTQTPLSLPVSLGDQASISCRSSQSIVHSDGNTYLEWYLQRPGQSPKLLIYKVSNRFSGVPDRFSGSGSGTDFTLKISRVGAEDLGVYYCFQGSHVPWTFGGGTKLEVKR

>  <REPORTED VALUE>
~0.011 nM

$$$$

Memo: PR301777 (antibody, human IgG1, kappa, V domains shown, Mouse variable domains, expressed recombinantly with human IgG1 wildtype Fc; also called Series 5 mAb) VH: EMKLEESGGGLVQPGGSMKLSCVASGFTFSNYWMNWVRQSPEKGLEWVAEIRLKSNNYATHYAESVKGRFTISRDDSKSGVYLQMNNLGAEDTGIYYCTVGTLVYWGQGTLVTVSA VL: DIVLTQSPASLAVSLGQRATISCRASQSVSTSTYNYMHWFQQKPGQPPKLLIKFASNLESGVPARFSGSGSGTDFTLNIHPVEEEDTATFYCQHSWEIPYTFGGGTKLEIKR , reported EC50: 0.038 nM
